src = patent US11324725B2

Reported IC50 by item:
# assayed.system: UniProt:P16066
# Sequence (P16066 33-1061): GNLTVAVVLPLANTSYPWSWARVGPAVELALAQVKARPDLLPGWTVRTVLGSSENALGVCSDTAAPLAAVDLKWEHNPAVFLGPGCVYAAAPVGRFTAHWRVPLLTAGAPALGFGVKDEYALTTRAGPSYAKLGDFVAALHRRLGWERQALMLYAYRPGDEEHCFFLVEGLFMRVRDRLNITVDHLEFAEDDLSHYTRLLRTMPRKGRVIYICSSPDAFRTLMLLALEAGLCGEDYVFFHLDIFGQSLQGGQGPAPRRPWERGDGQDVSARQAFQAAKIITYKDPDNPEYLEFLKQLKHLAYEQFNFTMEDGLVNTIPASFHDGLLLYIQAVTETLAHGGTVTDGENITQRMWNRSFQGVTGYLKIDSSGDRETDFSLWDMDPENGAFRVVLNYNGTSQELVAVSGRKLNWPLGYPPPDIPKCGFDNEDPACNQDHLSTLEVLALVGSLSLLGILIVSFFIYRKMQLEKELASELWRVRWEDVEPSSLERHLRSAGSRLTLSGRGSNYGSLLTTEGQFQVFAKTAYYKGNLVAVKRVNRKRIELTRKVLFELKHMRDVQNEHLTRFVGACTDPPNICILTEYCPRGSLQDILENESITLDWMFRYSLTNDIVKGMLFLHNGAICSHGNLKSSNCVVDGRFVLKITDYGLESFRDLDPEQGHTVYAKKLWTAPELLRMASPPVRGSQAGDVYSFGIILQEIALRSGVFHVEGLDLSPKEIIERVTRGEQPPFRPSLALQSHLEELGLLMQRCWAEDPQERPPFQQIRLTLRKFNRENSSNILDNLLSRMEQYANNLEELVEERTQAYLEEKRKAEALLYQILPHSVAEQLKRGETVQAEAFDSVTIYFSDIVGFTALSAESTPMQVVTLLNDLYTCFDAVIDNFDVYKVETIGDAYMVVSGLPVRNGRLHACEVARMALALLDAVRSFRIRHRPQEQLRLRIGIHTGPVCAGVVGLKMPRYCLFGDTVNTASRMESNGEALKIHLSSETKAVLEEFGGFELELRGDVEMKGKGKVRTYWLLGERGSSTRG
# protocol.text: qHTS GloSensor cGMP assay, hNppa-stimulated HEK-hNpr1-cGMP-sensor cells (1536-well)
# Format: cell-based
# protocol.conditions: Table 1; cell-based GloSensor assay of hNpr1 inhibition; read-out: IC50 GloSensor™ assay

compound	IC50
COc1ccc(C2(C(=O)N3CCC4(CC3)c3nccn3-c3ccccc3CN4C)CC2)cc1	8.91 µM
Cc1noc(C)c1-c1cc(-c2ccccc2Oc2ccccc2)cn2cncc12	28.2 µM
Cl.O=C1Nc2ccccc2CN(CC2CCCCC2)C12CCNCC2 [JS-1, hydrochloride]	7.31 µM
Cc1nn2c(c1-c1ccccc1Oc1ccccc1)N(C(=O)Cc1ccc3c(c1)OCO3)CCC2	7.94 µM
Cc1nn2c(c1-c1ccccc1OCc1ccccc1)N(C(=O)Cc1ccccn1)CCC2	8.91 µM
COc1cc(CN2CCC(C)(NC(C)=O)CC2)cc(-c2ccncc2)c1	14.1 µM
O=C(Cc1ccc(Cl)cc1)N1Cc2ccccc2CC2(CCCN2CC2CCNC2)C1 (stereo not drawn)	13 µM
Cc1nn2c(c1-c1ccccc1OCc1ccccc1)N(C(=O)Cc1ccc3c(c1)OCO3)CCC2	8.91 µM
CCC(CC)c1cc([C@H]2CN3CC[C@H]2C[C@@H]3CNS(=O)(=O)c2cccs2)nc(-c2ccncc2)n1	14.1 µM
